Molecular target: recombinant IL4I1 (Homo sapiens (Human))
Sequence (Q96RQ9 22-567): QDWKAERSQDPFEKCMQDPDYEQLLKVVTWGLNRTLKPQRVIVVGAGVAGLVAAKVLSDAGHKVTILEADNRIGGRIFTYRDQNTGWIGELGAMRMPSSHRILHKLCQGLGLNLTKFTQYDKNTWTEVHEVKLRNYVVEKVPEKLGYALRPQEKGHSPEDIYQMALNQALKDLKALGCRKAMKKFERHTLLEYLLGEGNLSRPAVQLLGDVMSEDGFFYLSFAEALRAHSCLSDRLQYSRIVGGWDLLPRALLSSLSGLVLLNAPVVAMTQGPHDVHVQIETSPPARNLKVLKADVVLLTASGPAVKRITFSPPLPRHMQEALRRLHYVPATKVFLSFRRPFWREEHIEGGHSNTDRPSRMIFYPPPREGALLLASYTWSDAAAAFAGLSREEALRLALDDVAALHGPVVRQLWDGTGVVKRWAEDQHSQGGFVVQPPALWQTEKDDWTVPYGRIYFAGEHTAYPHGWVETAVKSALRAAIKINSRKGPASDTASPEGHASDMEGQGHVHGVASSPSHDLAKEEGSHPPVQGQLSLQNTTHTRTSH
Test: IL4I1 Enzymatic Assay (Amplex Red/HRP coupled fluorescence detection of H2O2)
Type: biochemical
Conditions: 240 min; recombinant IL4I1, four-hour pre-incubation with compound
For each of the compounds below, state its EC50.
Express your answer as a number followed by its unit.

O=c1c(=O)n(C2(CF)CC2)ccn1Cc1ccc(-n2cccn2)cn1 [Example 218] yielded EC50 of 56 nM

CC1(N2CCN(CC34CC(c5ccccc5)(C3)C4(F)F)C(=O)C2=O)CCC1 [Example 190] yielded EC50 of 31 nM

CC(CN1CCN(C2CCCC2)C(=O)C1=O)c1nnc(-c2ccccc2)s1 (stereo not drawn) [Example 353] yielded EC50 of 11 nM

O=c1c(=O)n(C2(CF)CC2)ccn1Cc1cn(-c2ccccn2)nn1 [Example 257] yielded EC50 of 68 nM

O=C1C(=O)N(C2(CF)CC2)CCN1Cc1nnc(-c2ccccc2)s1 [Example 305] yielded EC50 of 32 nM

N#CC1(n2ccn(Cc3ccc(-n4cccn4)cn3)c(=O)c2=O)CC1 [Example 386] yielded EC50 of 225 nM

CC1(n2ccn(Cc3ccc(-c4ccccn4)nn3)c(=O)c2=O)CC1 [Example 87] yielded EC50 of 87 nM

O=C1C(=O)N(C2CCCC2)CCN1Cc1ccc(N2CCCCC2)nn1 [Example 316] yielded EC50 of 32 nM

O=c1c(=O)n(C23CC(C2)C3)ccn1Cc1ccc(-c2ccccn2)nn1 [Example 93] yielded EC50 of 31 nM

O=C1C(=O)N(C2CC[C@H](O)C2)CCN1Cc1nnc(-c2ccccc2)s1 (single isomer, unassigned) [Example 438] yielded EC50 of 40 nM

O=C1C(=O)N(C2CCCC2)CCN1Cc1ccc(-c2cnco2)nc1 [Example 18] yielded EC50 of 41 nM

O=C1C(=O)N(C23CC(C2)C3)CCN1Cc1ccc(-n2nccn2)nc1 [Example 116] yielded EC50 of 17 nM

CC1(n2ccn(Cc3ccc(-c4cncs4)nn3)c(=O)c2=O)CC1 [Example 94] yielded EC50 of 35 nM

O=C1C(=O)N(C2CCC2)CCN1Cc1ccc(-c2ccccc2F)nn1 [Example 1] yielded EC50 of 10 nM

O=C1C(=O)N(C23CC(C2)C3)CCN1Cc1cc(-c2ccccc2)no1 [Example 171] yielded EC50 of 6 nM

O=C1C(=O)N(C2CCCC2)CCN1Cc1cc(-c2ccccc2)no1 [Example 358A] yielded EC50 of 2 nM

O=C1C(=O)N(C23CC(F)(C2)C3)CCN1Cc1ccc(-c2ccccn2)nn1 [Example 226] yielded EC50 of 78 nM

O=C1C(=O)N(C2CCC2)CCN1Cc1ccc(-n2nccn2)cn1 [Example 136] yielded EC50 of 20 nM

CC1(n2ccn(Cc3ccc(-n4nccn4)nc3)c(=O)c2=O)CC1 [Example 415] yielded EC50 of 138 nM

O=c1c(=O)n(C2CCCC2)ccn1Cc1ccc(-c2cccc(F)c2)nn1 [Example 59] yielded EC50 of 5 nM

O=C1NCCc2ccc(CN3CCN(C4CCCC4)C(=O)C3=O)cc21 [Example 275] yielded EC50 of 20 nM

N#CC1(n2ccn(Cc3ccc(-n4ccnn4)cn3)c(=O)c2=O)CC1 [Example 387] yielded EC50 of 677 nM

O=c1c(=O)n(C2CCC2)ccn1Cc1ccc(-n2ccnn2)nc1 [Example 410] yielded EC50 of 5 nM

CC1(N2CCN(Cc3cc(-c4cccc(F)c4)no3)C(=O)C2=O)CCC1 [Example 185] yielded EC50 of 8 nM
